Provide the recorded pEC50 for the entries that follow.
system: Rhino 45; assay: Multicycle CPE reduction assay; type: cell-based, rhinovirus 45; details: Enterovirus, HeLa, 37° C. in HeLa cells
pEC50: −log10 of the molar value.

Entry under test: CC(=O)Oc1cc(C(C)C)ccc1C1(OC(C)=O)C(=O)c2ccccc2C1=O . Its pEC50 was 5.34

Form field pEC50, entry CC(=O)Oc1cc(C(C)C)ccc1C1(OC(C)=O)C(=O)c2cccc(N)c2C1=O (stereo not drawn) : ≥ 7.11

The compound listed as CC(=O)Oc1cc(C)ccc1C1(OC(C)=O)C(=O)c2ccccc2C1=O has a reported pEC50 of < 4.30

* * *

readout.kind: melting point

Form field melting point, entry CCCc1ccc(OC(C)=O)c(C2(OC(C)=O)C(=O)c3ccccc3C2=O)c1 : 108 to 111 °C

For this compound ( CC(=O)Oc1ccc(C(C)(C)C)cc1C1(OC(C)=O)C(=O)c2ccccc2C1=O ), measured melting point is 195 to 196 °C

Record CC(=O)Oc1cc(C)ccc1C1(OC(C)=O)C(=O)c2ccccc2C1=O . Reported melting point: 145 to 147 °C

Form field melting point, entry CONC(=O)NC1(c2ccc(C(C)C)cc2OC)C(=O)c2ccccc2C1=O : 153 to 155 °C

Lab book: melting point of COc1cc(C(C)C)ccc1C1(Cl)C(=O)c2cccc([N+](=O)[O-])c2C1=O (centres unmarked) noted as 81 to 84 °C

* * *

tested on: Coxsackie A21; test: Multicycle CPE reduction assay; type: cell-based, Coxsackievirus A21; conditions: Enterovirus C, A21, MRC5, read-out: Coxsackie A21 EC50
readout.kind: pEC50
The read-out pEC50 is expressed as -log10 of concentration in moles per litre.

Data point: CC(=O)Oc1cc(C)ccc1C1(OC(C)=O)C(=O)c2ccccc2C1=O ; pEC50 = 4.59

Value of measured pEC50 for the entry CC(=O)Oc1cc(C(C)C)ccc1C1(OC(C)=O)C(=O)c2ccccc2C1=O : 6.17

* * *

tested on: Entero-virus 70; experiment: Cytopathic effect (CPE) inhibition assay; type: cell-based, Enterovirus 70; settings: Enterovirus D, MRC5, 48 h; Table 3; MRC-5, 37° C., 2 days
For each record, write down the corresponding EC50.

Item: CC(=O)Oc1cc(C)c(C)cc1C1(OC(C)=O)C(=O)c2ccccc2C1=O | System: Entero-virus 70 | EC50: < 1 µg/mL

Per the reported Entero-virus 70 data, CC(=O)Oc1cc(Cl)ccc1C1(OC(C)=O)C(=O)c2ccccc2C1=O has EC50 of 0.013 µg/mL

Let me check: CCc1ccc(C2(OC(C)=O)C(=O)c3ccccc3C2=O)c(OC(C)=O)c1 , system Entero-virus 70, measured EC50 is < 0.01 µg/mL

Tested on Entero-virus 70: CC(=O)Oc1cc(C(C)C)ccc1C1(OC(C)=O)C(=O)c2ccccc2C1=O . Observed EC50: < 0.01 µg/mL

* * *

test system: Entero 71; assay: Multicycle CPE reduction assay; type: cell-based, enterovirus 71; settings: Enterovirus A; 37° C. in RD cells
Please go through the items and note down their EC50.
# value in nM; strip the unit string

The compound listed as CC(=O)Oc1cc(C)ccc1C1(OC(C)=O)C(=O)c2ccccc2C1=O has a reported EC50 of 3300

Quick note, EC50 for CC(=O)Oc1cc(C(C)C)ccc1C1(OC(C)=O)C(=O)c2ccccc2C1=O landed at 100

The compound listed as CC(=O)Oc1cc(C(C)C)ccc1C1(OC(C)=O)C(=O)c2cccc(N)c2C1=O (stereo not drawn) has a reported EC50 of 6.7
